System: MS2 coat protein
Measurement Notes: apparent KD of MS2 coat protein; designed switch direction (-1 OFF switch, 1 ON switch): -1; higher = weaker reporter binding
Condition Info: input ligand: FMN 200 uM
Record form. Attribute: apparent KD of MS2 coat protein. Fill in for each entry.
One number for each entry, in nM.

Residue Codes	Measured On	Unit Tag	apparent KD of MS2 coat protein
CAGUACUGAGGAUAUACAUGAGGAUCACCCAUGUGUGUGCGUUUUGUAUGAAUGUUAUGUAGAAGGCGGUGCUG [JR_Ex3_Sub035] (Eterna round: R97, puzzle: Exclusion 3)	MS2 coat protein	nM	201

Your task in this section: give apparent KD of MS2 coat protein for each listed record.
1. GCACGGAAUGCAGGAUAUCUGUGCGAUUAGCUCAGAGAAGGGCACAUGAGGAUCACCCAUGUGUAUAAAACACAAAAUCCGUGC [Eli exng1 - 067] (Eterna round: R96, puzzle: Exclusion NG 1)
2. GUGGUACAUGAGGAUCACCCAUGUGAGGAUAUGUCUGUCUGUUGGUUUCGGCGGGCGGGCAGAAGGCGCGUCGC [-27.3, -25.1 kcal, 16% A] (Eterna round: R97, puzzle: Exclusion 1)
3. GAAUAGGGAGGAUAUCCAAUAUAUGACAUGAGGAUCACCCAUGUUUCCACUCGUACCUCCGGAGAAGGCCCAUAAA [Ex5 #4] (Eterna round: R97, puzzle: Exclusion 5)
4. UACAUGAGGAUCACCCAUGUUUUGUCGUGUAUGGUACCCGUUUAGGAUAUCGUGUUAUUGGACCGCGAGAAGGAGAGUAUCAUU [Excl-NG3-LRO05] (Eterna round: R96, puzzle: Exclusion NG 3)

1. 13.5
2. 34.1
3. 22.8
4. 24

Value source: the supplement of paper PMC9170038
